B1: TFE3 (parent)
chain: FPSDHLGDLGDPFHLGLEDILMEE

variants of: B1; assay: protein stability index of a GFP-peptide fusion (GPS, HEK-293T) (PSI 1-6); higher = more stable; settings: c terminus: a fixed tail appended;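 also: lentivirally expressed fusions sorted by FACS into six bins by GFP to DsRed ratio, PSI derived from sequencing read proportions per bin multiplied by bin number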
For each record, write down the corresponding protein stability index.
Answers are plain numbers.

Solved entries (count: 6):
sequenceText | protein stability index
FPSDHLGDLGDPFHLELEDILMEE [G16E] | 3.96
FPYDHLGDLGDPFHLGLEDILMEE [S3Y] | 2.45
WPSDHLGDLGDPFHLGLEDILMEE [F1W] | 4.36
FPSDHLGDLGDPFHLGLADILMEE [E18A] | 2.7
FPSDHLGRLGDPFHLGLEDILMEE [D8R] | 2.15
FPSDHLGDLGDPFHLGLEDILMEL [E24L] | 1.97

Please state, for each entry, its recorded protein stability index.
1. FPSDHLGDLGDPFHYGLEDILMEE [L15Y]
2. FPSDHLGDLGDPFHLGLEDIKMEE [L21K]

[3.56, 4.06]

Please state, for each entry, its recorded protein stability index.
1. FPCDHLGDLGDPFHLGLEDILMEE [S3C]
2. FPSFHLGDLGDPFHLGLEDILMEE [D4F]
3. FPSDHLGDMGDPFHLGLEDILMEE [L9M]

1. 2.46
2. 2.75
3. 3.74
